Listing: TGI of selected compounds
- Tested on: CCRF-CEM leukemia
- test: NCI tumour cell line growth inhibition, 48 h
Numeric only. Scale: µM

Example entries and their recorded answers appear below.
- structure: "NCCNc1ccc(NCCN)c2c1C(=O)c1c(O)ccc(O)c1C2=O"
  quantitative_result: 3.79
- structure: "[O-][N+]1=C(c2ccccc2)/C(=C2/C(c3ccccc3)=[N+]([O-])c3ccccc32)Cc2ccccc21"
  quantitative_result: 60.1
- structure: "CCC/C=C/C=C\\C(=O)O[C@@H]1[C@@H](C)[C@]2(O)[C@@H]3C=C(C)C(=O)[C@H]3CC(COC(C)=O)=C[C@H]2[C@@H]2C(C)(C)[C@]12OC(C)=O"
  quantitative_result: 36.2
- structure: "Cc1cc2oc(=O)cc(OC/C=C3/CCC(=O)O3)c2cc1C"
  quantitative_result: 7.25

Attention now turns to another entry.
Which TGI is reported for this compound? C[N+]1(C)C/C(=C\C=C\c2ccccc2)C(=O)/C(=C/C=C/c2ccccc2)C1 13.7
